Values compiled from patent US20230265151A1.

# assayed_system: T1, human glucose-dependent insulinotropic polypeptide (GIP) receptor (human) (UniProt P48546)
# T1 sequence (looked up): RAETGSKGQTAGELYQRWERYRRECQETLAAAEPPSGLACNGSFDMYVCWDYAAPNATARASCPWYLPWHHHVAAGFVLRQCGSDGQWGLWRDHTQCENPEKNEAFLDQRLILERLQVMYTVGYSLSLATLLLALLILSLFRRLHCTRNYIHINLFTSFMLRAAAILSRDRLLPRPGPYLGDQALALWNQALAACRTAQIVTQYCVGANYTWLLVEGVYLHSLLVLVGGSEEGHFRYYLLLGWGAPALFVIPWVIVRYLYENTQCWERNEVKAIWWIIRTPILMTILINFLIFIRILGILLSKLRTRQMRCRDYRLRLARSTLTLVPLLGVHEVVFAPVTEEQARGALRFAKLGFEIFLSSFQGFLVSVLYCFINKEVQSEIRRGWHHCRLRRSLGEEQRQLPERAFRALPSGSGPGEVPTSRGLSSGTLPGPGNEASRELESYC
# run_description: cell-based or functional assay
# maps each entry to its cAMP Emax
Don't forget the unit after the value.

Answered examples (4):
binder="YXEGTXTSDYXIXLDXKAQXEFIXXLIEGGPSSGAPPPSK (Y-Aib-EGT-αMeF(2F)-TSDY-Aib-I-αMeL-LD-Orn-K((2-[2-(2-Amino-ethoxy)-ethoxy]-acetyl)2-(γ-Glu)-(10-(4-carboxyphenoxy)decanoyl))AQ-Aib-EFI-(D-Glu)-αMeY-LIEGGPSSGAPPPSK((2-[2-(2-Amino-ethoxy)-ethoxy]-acetyl)2-(γ-Glu)-(10-(4-carboxyphenoxy)decanoyl))-NH2) [Example 238]" observed_property="cAMP Emax" result=104%
binder="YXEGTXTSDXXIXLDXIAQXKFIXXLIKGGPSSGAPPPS (Y-Aib-EGT-αMeF(2F)-TSD-4Pal-Aib-I-αMeL-LD-Orn-IAQ-Aib-K((2-[2-(2-Amino-ethoxy)-ethoxy]-acetyl)2-(γ-Glu)-CO-(CH2)12-CO2H)FI-(D-Glu)-αMeY-LIK((2-[2-(2-Amino-ethoxy)-ethoxy]-acetyl)2-(γ-Glu)-CO-(CH2)12-CO2H)GGPSSGAPPPS-NH2) [Example 220]" observed_property="cAMP Emax" result=91.6%
binder="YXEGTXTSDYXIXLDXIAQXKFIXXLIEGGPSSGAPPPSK (Y-Aib-EGT-aMeF(2F)-TSDY-Aib-I-aMeL-LD-Orn-IAQ-Aib-K((2-[2-(2-Amino-ethoxy)-ethoxy]-acetyl)2-(γ-Glu)-CO-(CH2)12-CO2H)FI-(D-Glu)-αMeY-LIEGGPSSGAPPPSK((2-[2-(2-Amino-ethoxy)-ethoxy]-acetyl)2-(γ-Glu)-CO-(CH2)12-CO2H)-NH2) [Example 235]" observed_property="cAMP Emax" result=99.3%
binder="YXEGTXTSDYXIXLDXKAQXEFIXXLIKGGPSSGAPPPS (Y-Aib-EGT-αMeF(2F)-TSDY-Aib-I-αMeL-LD-Orn-K((2-[2-(2-Amino-ethoxy)-ethoxy]-acetyl)2-(γ-Glu)-(10-(4-carboxyphenoxy)decanoyl))AQ-Aib-EFI-(D-Glu)-αMeY-LIK((2-[2-(2-Amino-ethoxy)-ethoxy]-acetyl)2-(γ-Glu)-(10-(4-carboxyphenoxy)decanoyl))GGPSSGAPPPS-NH2) [Example 237]" observed_property="cAMP Emax" result=102%

Query: # cAMP Emax lookup, item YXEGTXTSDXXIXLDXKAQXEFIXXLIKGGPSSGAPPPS (Y-Aib-EGT-αMeF(2F)-TSD-4Pal-Aib-I-αMeL-LD-Orn-K((2-[2-(2-Amino-ethoxy)-ethoxy]-acetyl)2-(γ-Glu)-(10-(4-carboxyphenoxy)decanoyl))AQ-Aib-EFI-(D-Glu)-αMeY-LIK((2-[2-(2-Amino-ethoxy)-ethoxy]-acetyl)2-(γ-Glu)-(10-(4-carboxyphenoxy)decanoyl))GGPSSGAPPPS-NH2) [Example 244]
Result: 101%

Query: # cAMP Emax lookup, item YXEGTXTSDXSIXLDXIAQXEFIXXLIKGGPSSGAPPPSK (Y-Aib-EGT-αMeF(2F)-TSD-4Pal-SI-αMeL-LD-Orn-IAQ-Aib-EFI-(D-Glu)-αMeY-LIK((2-[2-(2-Amino-ethoxy)-ethoxy]-acetyl)2-CO-(CH2)12-CO2H)GGPSSGAPPPSK((2-[2-(2-Amino-ethoxy)-ethoxy]-acetyl)2-CO-(CH2)12-CO2H)-NH2) [Example 223]
Result: 103%
